- experimentSummary: Inhibition of N-terminal His6-tagged SARS-CoV-2 Main protease extracted from Escherichia coli BL21 (DE3) using MCA-Ala-Val-Leu-Gln-Ser-Gly-Phe-Arg-Lys(Dnp)-LsyNH2-trifluoroacetate salt as substrate incubated for 60 mins by FRET assay
- Design: species or system Severe acute respiratory syndrome coronavirus 2
observable: pIC50
Please treat pIC50 as minus the base-10 logarithm of the molar concentration.

Which pIC50 reading was recorded for the compound `CC(C)C[C@H](NC(=O)OCC(C)(C)Sc1ccccc1)C(=O)N[C@H](C#N)C[C@@H]1CCNC1=O` ?
6.31

====

- experimentSummary: Inhibition of MERS-CoV Main protease using Dabcyl-KTSAVLQSGFRKM-Glu(Edans) as susbstrate measured for 1 hrs by fluorescence based analysis
- Parameters: species or system Middle East respiratory syndrome-related coronavirus
observable: pIC50
Please treat pIC50 as minus the base-10 logarithm of the molar concentration.

Which pIC50 reading was recorded for the compound `CC(C)C[C@H](NC(=O)OCC(C)(C)Sc1ccccc1)C(=O)N[C@H](C#N)C[C@@H]1CCNC1=O` ?
6.39
